Target: histamine 3 receptor (H3R) (Homo sapiens)
Construct: expressed in transfected cells; host or cells: CHO cells
Sequence (Q9Y5N1 whole entry): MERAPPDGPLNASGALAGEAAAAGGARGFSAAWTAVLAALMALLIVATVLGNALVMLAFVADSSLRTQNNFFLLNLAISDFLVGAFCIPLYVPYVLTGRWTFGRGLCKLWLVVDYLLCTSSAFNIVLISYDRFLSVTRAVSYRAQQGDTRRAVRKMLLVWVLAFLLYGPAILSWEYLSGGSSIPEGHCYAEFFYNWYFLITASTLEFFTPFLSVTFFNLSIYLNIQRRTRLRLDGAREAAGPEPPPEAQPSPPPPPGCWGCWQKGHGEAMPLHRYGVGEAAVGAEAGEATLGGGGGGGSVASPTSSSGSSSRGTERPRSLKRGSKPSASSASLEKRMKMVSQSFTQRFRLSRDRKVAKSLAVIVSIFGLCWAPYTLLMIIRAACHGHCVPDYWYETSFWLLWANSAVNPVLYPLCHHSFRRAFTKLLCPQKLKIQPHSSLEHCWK
Experiment: Binding assay with 3H-(R)α-methylhistamine (competition binding, membranes of human HR3-CHO cell line)
Settings: competition against 3H(R)α-Methylhistamine (1 nM), membrane of the human HR3-CHO cell line; Ki calculated from IC50 by Cheng-Prusoff equation
pKi: −log10 of the molar value.
PROPERTY: pKi

[
  {
    "MOLECULE": "CC(C)N1CCN(C(=O)c2cc3cc(OCCC4CCCN4C)ccc3[nH]2)CC1 (stereo not shown) [Example 117]",
    "STUDY TARGET": "histamine 3 receptor (H3R) (Homo sapiens)",
    "READING": 7.11
  }
]
